Quick list: Kd per entry.
# experimental.system: T1, IFN-αF (human, UniProt P01568 24-189)
# T1 construct: Recombinant, HEK293; also called IFN-α21
# T1 chain: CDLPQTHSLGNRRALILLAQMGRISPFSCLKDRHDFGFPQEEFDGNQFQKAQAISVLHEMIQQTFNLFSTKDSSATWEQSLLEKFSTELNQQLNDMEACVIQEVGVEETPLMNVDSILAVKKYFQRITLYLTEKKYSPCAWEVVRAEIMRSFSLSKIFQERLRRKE
# assay.overview: ProteOn SPR, cell supernatant;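 further: each binding measurement used just a single antigen concentration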
Field: numeric (nM). Do not append units.

binder	attribute.measured	unit.label	measured
IFWM3381 (antibody, IgG1, V domains shown, mAb; IgG1/kappa said of the parent and of selected mAbs; also called IFWB3116) VH: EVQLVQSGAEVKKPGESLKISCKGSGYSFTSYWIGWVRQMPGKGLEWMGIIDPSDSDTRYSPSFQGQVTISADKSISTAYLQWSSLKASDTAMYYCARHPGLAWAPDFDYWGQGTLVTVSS VL: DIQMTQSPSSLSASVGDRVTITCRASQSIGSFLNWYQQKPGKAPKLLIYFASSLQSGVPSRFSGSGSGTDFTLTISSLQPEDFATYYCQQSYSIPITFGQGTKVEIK	Kd	nM	0.092
IFWM3382 (antibody, IgG1, V domains shown, mAb; IgG1/kappa said of the parent and of selected mAbs; also called IFWB3117) VH: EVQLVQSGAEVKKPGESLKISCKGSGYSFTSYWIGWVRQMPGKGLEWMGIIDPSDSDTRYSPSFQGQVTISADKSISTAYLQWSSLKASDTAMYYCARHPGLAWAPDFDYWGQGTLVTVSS VL: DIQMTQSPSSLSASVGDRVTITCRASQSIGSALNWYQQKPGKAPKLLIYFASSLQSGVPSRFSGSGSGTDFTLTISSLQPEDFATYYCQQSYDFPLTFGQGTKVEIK	Kd	nM	0.02

Let's switch to this binder now.
The reported value for IFWM3385 (antibody, IgG1, V domains shown, mAb; IgG1/kappa said of the parent and of selected mAbs; also called IFWB3120) VH: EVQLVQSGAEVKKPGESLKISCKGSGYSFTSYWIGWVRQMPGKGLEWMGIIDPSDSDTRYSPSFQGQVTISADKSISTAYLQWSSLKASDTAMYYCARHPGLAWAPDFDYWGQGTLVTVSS VL: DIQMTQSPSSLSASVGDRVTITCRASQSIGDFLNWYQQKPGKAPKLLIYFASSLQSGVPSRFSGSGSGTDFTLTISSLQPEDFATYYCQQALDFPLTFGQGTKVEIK in terms of Kd is 0.041
